All values here come from patent US20210252173A1.

- Test Name: in vivo
- Design: species or system mice and rats
- Applied Conditions: rat
Readout: NOAEL at 26 weeks

| Molecule | Result |
| --- | --- |
| [2H]C([2H])(/C=C\CCCCC)/C=C\CCCCCCCC(=O)O [11,11-D2-linoleic acid] | ~452 mg/kg |
